We begin with a simple list: items and their reported abundance fitness.
B1: Homeobox expressed in ES cells 1, residues 110 to 165; numbered along this chain, Q9UBX0 (parent)
chain: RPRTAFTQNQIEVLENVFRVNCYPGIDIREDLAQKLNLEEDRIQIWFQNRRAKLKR

variants of: B1; assay: abundance fitness (aPCA) (normalised: wild type 0, dead -1); higher = more abundant; growth selection in yeast, the domain comes from the species named; conditions: Homo sapiens
ENDPOINT NAME: abundance fitness

mutant_id=N21I endpoint_name="abundance fitness" reported=-0.522
mutant_id=I28E endpoint_name="abundance fitness" reported=-0.176
mutant_id=E30R endpoint_name="abundance fitness" reported=0.196
mutant_id=Q8D endpoint_name="abundance fitness" reported=-0.094
mutant_id=D27P endpoint_name="abundance fitness" reported=-0.128
mutant_id=R29V endpoint_name="abundance fitness" reported=0.011
mutant_id=C22E endpoint_name="abundance fitness" reported=0.227
mutant_id=A5F endpoint_name="abundance fitness" reported=0.324
mutant_id=F18K endpoint_name="abundance fitness" reported=-0.845
mutant_id=A33S endpoint_name="abundance fitness" reported=-0.124
mutant_id=V20D endpoint_name="abundance fitness" reported=0.136
mutant_id=V17E endpoint_name="abundance fitness" reported=-0.372
mutant_id=P2W endpoint_name="abundance fitness" reported=-0.046
mutant_id=E30D endpoint_name="abundance fitness" reported=-0.18
mutant_id=P24W endpoint_name="abundance fitness" reported=-0.896
mutant_id=N16R endpoint_name="abundance fitness" reported=-0.417
mutant_id=A5K endpoint_name="abundance fitness" reported=0.412
mutant_id=V13P endpoint_name="abundance fitness" reported=-0.596
mutant_id=R3G endpoint_name="abundance fitness" reported=0.178
mutant_id=T4K endpoint_name="abundance fitness" reported=0.116
mutant_id=V13I endpoint_name="abundance fitness" reported=0.467
mutant_id=Y23A endpoint_name="abundance fitness" reported=0.05
mutant_id=E30F endpoint_name="abundance fitness" reported=0.048
mutant_id=G25M endpoint_name="abundance fitness" reported=-0.688
mutant_id=V17F endpoint_name="abundance fitness" reported=-0.562
mutant_id=I26A endpoint_name="abundance fitness" reported=-0.057
mutant_id=E15A endpoint_name="abundance fitness" reported=-0.832
mutant_id=F6D endpoint_name="abundance fitness" reported=-0.599
mutant_id=T7K endpoint_name="abundance fitness" reported=-0.245
mutant_id=V13H endpoint_name="abundance fitness" reported=0.023
mutant_id=V13M endpoint_name="abundance fitness" reported=0.618
mutant_id=Y23T endpoint_name="abundance fitness" reported=-0.137
mutant_id=E15C endpoint_name="abundance fitness" reported=-0.567
mutant_id=R19C endpoint_name="abundance fitness" reported=-0.354
mutant_id=L14N endpoint_name="abundance fitness" reported=-0.506
mutant_id=I11E endpoint_name="abundance fitness" reported=0.274
mutant_id=P2D endpoint_name="abundance fitness" reported=0.699
mutant_id=E12K endpoint_name="abundance fitness" reported=0.487
mutant_id=E30S endpoint_name="abundance fitness" reported=-0.209
mutant_id=E12G endpoint_name="abundance fitness" reported=-0.525
mutant_id=T4R endpoint_name="abundance fitness" reported=0.171
mutant_id=E30I endpoint_name="abundance fitness" reported=0.099
mutant_id=D27Q endpoint_name="abundance fitness" reported=0.203
mutant_id=V20Y endpoint_name="abundance fitness" reported=-0.667
mutant_id=A5W endpoint_name="abundance fitness" reported=-0.21
mutant_id=A5D endpoint_name="abundance fitness" reported=0.653
mutant_id=Y23Q endpoint_name="abundance fitness" reported=-0.251
mutant_id=I26N endpoint_name="abundance fitness" reported=0.226
mutant_id=L32M endpoint_name="abundance fitness" reported=-0.689
mutant_id=A33M endpoint_name="abundance fitness" reported=-0.252
mutant_id=T4I endpoint_name="abundance fitness" reported=-0.007
mutant_id=V13Q endpoint_name="abundance fitness" reported=-0.184
mutant_id=C22S endpoint_name="abundance fitness" reported=0.187
mutant_id=E12A endpoint_name="abundance fitness" reported=-0.257
mutant_id=R3M endpoint_name="abundance fitness" reported=0.15
mutant_id=P2L endpoint_name="abundance fitness" reported=0.297
mutant_id=N16M endpoint_name="abundance fitness" reported=-0.215
mutant_id=T4A endpoint_name="abundance fitness" reported=-0.164
mutant_id=P24K endpoint_name="abundance fitness" reported=0.273
mutant_id=V20T endpoint_name="abundance fitness" reported=-0.03
mutant_id=I26S endpoint_name="abundance fitness" reported=-0.078
mutant_id=L32S endpoint_name="abundance fitness" reported=-0.787
mutant_id=D31K endpoint_name="abundance fitness" reported=0.679
mutant_id=E30L endpoint_name="abundance fitness" reported=0.134
mutant_id=D31F endpoint_name="abundance fitness" reported=0.535
mutant_id=E12N endpoint_name="abundance fitness" reported=-0.148
mutant_id=I11V endpoint_name="abundance fitness" reported=-0.145
mutant_id=I11M endpoint_name="abundance fitness" reported=-0.652
mutant_id=A5M endpoint_name="abundance fitness" reported=0.609
mutant_id=L32W endpoint_name="abundance fitness" reported=-0.386
mutant_id=R3L endpoint_name="abundance fitness" reported=-0.008
mutant_id=F6I endpoint_name="abundance fitness" reported=-0.075
mutant_id=N9C endpoint_name="abundance fitness" reported=-0.293
mutant_id=N16Y endpoint_name="abundance fitness" reported=-0.56
mutant_id=V20G endpoint_name="abundance fitness" reported=-0.157
mutant_id=V17W endpoint_name="abundance fitness" reported=-0.923
mutant_id=D31R endpoint_name="abundance fitness" reported=-0.032
mutant_id=V20I endpoint_name="abundance fitness" reported=0.077
mutant_id=Y23L endpoint_name="abundance fitness" reported=-0.338
mutant_id=N21S endpoint_name="abundance fitness" reported=-0.454
mutant_id=R19Q endpoint_name="abundance fitness" reported=-0.187
mutant_id=F6N endpoint_name="abundance fitness" reported=-0.454
mutant_id=R29D endpoint_name="abundance fitness" reported=-0.749
mutant_id=N16S endpoint_name="abundance fitness" reported=-0.02
mutant_id=I26C endpoint_name="abundance fitness" reported=-0.218
mutant_id=N9F endpoint_name="abundance fitness" reported=-0.243
mutant_id=I11R endpoint_name="abundance fitness" reported=-0.472
mutant_id=Q34N endpoint_name="abundance fitness" reported=-0.216
mutant_id=E15M endpoint_name="abundance fitness" reported=-0.196
mutant_id=I26Y endpoint_name="abundance fitness" reported=-0.159
mutant_id=Q8E endpoint_name="abundance fitness" reported=-0.019
